subject of test: recombinant E. coli BioA (Escherichia coli)
Sequence (P12995 whole entry): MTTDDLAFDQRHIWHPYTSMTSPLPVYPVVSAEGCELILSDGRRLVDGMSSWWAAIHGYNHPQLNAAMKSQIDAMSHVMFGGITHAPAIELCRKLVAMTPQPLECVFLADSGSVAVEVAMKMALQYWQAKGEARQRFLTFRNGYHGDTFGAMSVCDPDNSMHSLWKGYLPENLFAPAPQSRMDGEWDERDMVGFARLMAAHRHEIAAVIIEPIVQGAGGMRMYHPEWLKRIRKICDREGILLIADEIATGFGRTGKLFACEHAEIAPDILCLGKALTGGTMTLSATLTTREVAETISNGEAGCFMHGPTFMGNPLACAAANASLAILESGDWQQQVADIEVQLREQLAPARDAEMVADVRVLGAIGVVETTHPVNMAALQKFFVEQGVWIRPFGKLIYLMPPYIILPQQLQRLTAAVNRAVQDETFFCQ
assay: BioA inhibition through a feeding assay of a bioA auxotroph
Type: biochemical
details: 10 μM; relative to DMSO control
The following molecules are listed with their measured inhibition at 10 µM values.
Report the figure in % without appending any unit label.

Answered cases to consult:
NNC(=O)CSc1ccccc1 [Compound 1c, 2-(phenylthio)acetohydrazide]
100
CC(=O)NNC(=O)CSc1ccc([N+](=O)[O-])cc1
0
O=C(O)CSc1ccccc1[N+](=O)[O-]
0
CSCC(=O)NN
64
NNC(=O)CSCc1ccccc1 [Compound 2g, 2-(benzylthio)acetohydrazide]
100

Please give the measured inhibition at 10 µM for this molecule: NC(=O)CSc1ccccc1[N+](=O)[O-]
0

Need inhibition at 10 µM of NNC(=O)CS , thanks.
34

Reported inhibition at 10 µM, molecule NNC(=O)CSc1ccc2ccccc2c1 [Compound 2h, 2-(naphthalen-2-ylthio)acetohydrazide] : ____
100
